Tested on: RXRa DBDmut IVT, anti-RXR (DBD mutation: RXRa K156A/R161A, NR concentration 90 nM)
Assay: PBM binding z-score (relative to random genomic background probes); higher = stronger binding; sequences stand for … in GC…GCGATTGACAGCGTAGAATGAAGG
Please note: 1 applies when PBM binding z-score is 0.8 or greater, and -1 applies otherwise.

Sequence text | Target or system | Assigned category
AATACAGGGTCATCGTAGGCCAGAGGACGCACAG | RXRa DBDmut IVT, anti-RXR (DBD mutation: RXRa K156A/R161A, NR concentration 90 nM) | 1
CGAACTACGTCAGAACAGGACAGTGAAGGATGAT | RXRa DBDmut IVT, anti-RXR (DBD mutation: RXRa K156A/R161A, NR concentration 90 nM) | -1
TCAATGAGGTTAAAGATCAGGGAACGTGGCGTCG | RXRa DBDmut IVT, anti-RXR (DBD mutation: RXRa K156A/R161A, NR concentration 90 nM) | 1
TCAAGCAGGCCAGAGGGTCACTCAAGAGGTACGG | RXRa DBDmut IVT, anti-RXR (DBD mutation: RXRa K156A/R161A, NR concentration 90 nM) | -1
TATACAGGGTCAAAGGCCAGCGTACGAATGTCGA | RXRa DBDmut IVT, anti-RXR (DBD mutation: RXRa K156A/R161A, NR concentration 90 nM) | 1
ATCTCTAGGTAAAGATAGTTCTGTGAATGCAAAT | RXRa DBDmut IVT, anti-RXR (DBD mutation: RXRa K156A/R161A, NR concentration 90 nM) | -1
TCAGACAGGTGAAGGTACCTCAGGTACGCAGTCG | RXRa DBDmut IVT, anti-RXR (DBD mutation: RXRa K156A/R161A, NR concentration 90 nM) | 1
ATTTACGGGTCAACGAGGTTATAGCACGCGTATA | RXRa DBDmut IVT, anti-RXR (DBD mutation: RXRa K156A/R161A, NR concentration 90 nM) | 1
TCTAGCAGGCCAGAGGGTCACTCACGAGGTACGG | RXRa DBDmut IVT, anti-RXR (DBD mutation: RXRa K156A/R161A, NR concentration 90 nM) | -1
CAAACTAGGTCACAGAGGCCAAAGTCCGTGCGTA | RXRa DBDmut IVT, anti-RXR (DBD mutation: RXRa K156A/R161A, NR concentration 90 nM) | 1
ATCTCTAGGTGAAGATAGTTCAGTGAATGCAAAT | RXRa DBDmut IVT, anti-RXR (DBD mutation: RXRa K156A/R161A, NR concentration 90 nM) | -1
TCTATTAGTTGACTAGGGCAACCGAAACAGCGGA | RXRa DBDmut IVT, anti-RXR (DBD mutation: RXRa K156A/R161A, NR concentration 90 nM) | 1
TCTATTAGTTGAAGGTCAACCGACGAGTCCGTTT | RXRa DBDmut IVT, anti-RXR (DBD mutation: RXRa K156A/R161A, NR concentration 90 nM) | 1
TATAGCAGGCCAGAGGGTCACTCAAGAGGTACGG | RXRa DBDmut IVT, anti-RXR (DBD mutation: RXRa K156A/R161A, NR concentration 90 nM) | -1
CAGCCTAGGTCAGGGCCAGTCTAGGAGGAACGTT | RXRa DBDmut IVT, anti-RXR (DBD mutation: RXRa K156A/R161A, NR concentration 90 nM) | -1
AATACAGGGTCATCGTAGACCAGAGTACGCACAG | RXRa DBDmut IVT, anti-RXR (DBD mutation: RXRa K156A/R161A, NR concentration 90 nM) | 1
ACAGACAGGTGAGTGAAGGTAACTTAGCTGGACG | RXRa DBDmut IVT, anti-RXR (DBD mutation: RXRa K156A/R161A, NR concentration 90 nM) | -1
GTACCAAGATGAATAGGTCGTTGATGAGTAGGCG | RXRa DBDmut IVT, anti-RXR (DBD mutation: RXRa K156A/R161A, NR concentration 90 nM) | -1
CCTTACGGTTCAAGGTTATAGCACGGGTGGTACG | RXRa DBDmut IVT, anti-RXR (DBD mutation: RXRa K156A/R161A, NR concentration 90 nM) | 1
TCGACTAGGTTACCAATGGGGCATTCAGCTTTCT | RXRa DBDmut IVT, anti-RXR (DBD mutation: RXRa K156A/R161A, NR concentration 90 nM) | 1
ATCTCTAGGTAAAGATAGTTCAGTGAGTGCAAAT | RXRa DBDmut IVT, anti-RXR (DBD mutation: RXRa K156A/R161A, NR concentration 90 nM) | -1
TCGAGTAGGTTACCGATGGGGCATTCAGCTTTCT | RXRa DBDmut IVT, anti-RXR (DBD mutation: RXRa K156A/R161A, NR concentration 90 nM) | -1
AGAACGAGGGCACGCTGAGCTGATAGCAGAGTAG | RXRa DBDmut IVT, anti-RXR (DBD mutation: RXRa K156A/R161A, NR concentration 90 nM) | 1
CCTATTAGATGACCATAAGGGCAACCGAAGCTCG | RXRa DBDmut IVT, anti-RXR (DBD mutation: RXRa K156A/R161A, NR concentration 90 nM) | -1
ATATGTAGGGTATCGGGTCATTCAGTTTGCGCAT | RXRa DBDmut IVT, anti-RXR (DBD mutation: RXRa K156A/R161A, NR concentration 90 nM) | 1
CCGACTGAGGCAAGGTTACCATAACGCACAGCCA | RXRa DBDmut IVT, anti-RXR (DBD mutation: RXRa K156A/R161A, NR concentration 90 nM) | -1
CGAACTAGGTCAAGGACAGGGAATCTCCGCACGC | RXRa DBDmut IVT, anti-RXR (DBD mutation: RXRa K156A/R161A, NR concentration 90 nM) | 1
AGTCGAAGTTCAGGACGAGGTAACGTAAAGCACG | RXRa DBDmut IVT, anti-RXR (DBD mutation: RXRa K156A/R161A, NR concentration 90 nM) | 1
CCTAGTTGGTCAGGAGGTCACACATCGGATATGA | RXRa DBDmut IVT, anti-RXR (DBD mutation: RXRa K156A/R161A, NR concentration 90 nM) | -1
TCTCGGAGTACACGAAGGTCAGAGCTTTCCAGAG | RXRa DBDmut IVT, anti-RXR (DBD mutation: RXRa K156A/R161A, NR concentration 90 nM) | 1
TTACCAAGGTGAGCTCAGGTCGTTGATCCAACTC | RXRa DBDmut IVT, anti-RXR (DBD mutation: RXRa K156A/R161A, NR concentration 90 nM) | -1
CGAACTAGGTCATGGACAGGACAGTGAATAGTAA | RXRa DBDmut IVT, anti-RXR (DBD mutation: RXRa K156A/R161A, NR concentration 90 nM) | 1
CGAACTCGGTCATCCAGGACAGTGAATACATTGA | RXRa DBDmut IVT, anti-RXR (DBD mutation: RXRa K156A/R161A, NR concentration 90 nM) | 1
AGAACGAGGGCAACGAGTTGATAGCACGGGTGGC | RXRa DBDmut IVT, anti-RXR (DBD mutation: RXRa K156A/R161A, NR concentration 90 nM) | 1
CCGACTGGGGCAATGGTTACCATACTCAGTACGA | RXRa DBDmut IVT, anti-RXR (DBD mutation: RXRa K156A/R161A, NR concentration 90 nM) | -1
CCTGCTAGGTCATGGTCAGATAATCTACAGTATG | RXRa DBDmut IVT, anti-RXR (DBD mutation: RXRa K156A/R161A, NR concentration 90 nM) | 1
CGAGCTAGGTCAAGGACAGTGAATCTCCGCACGC | RXRa DBDmut IVT, anti-RXR (DBD mutation: RXRa K156A/R161A, NR concentration 90 nM) | 1
ACTATTAGTTGAGACGTGGGCAACCGATAGGTTG | RXRa DBDmut IVT, anti-RXR (DBD mutation: RXRa K156A/R161A, NR concentration 90 nM) | -1
GCAGACAGGTGAGACGCAGGTAACTCAGGGTGGC | RXRa DBDmut IVT, anti-RXR (DBD mutation: RXRa K156A/R161A, NR concentration 90 nM) | -1
TCTATTAGATGAAGGGCAACCGACGAGTCCGTTT | RXRa DBDmut IVT, anti-RXR (DBD mutation: RXRa K156A/R161A, NR concentration 90 nM) | 1
TCTATTAGTCGAAGGGCAACCGACGAGTCCGTTT | RXRa DBDmut IVT, anti-RXR (DBD mutation: RXRa K156A/R161A, NR concentration 90 nM) | 1
CCGAGTAGGTTATGGGGCATTCCGGCAACGGTGA | RXRa DBDmut IVT, anti-RXR (DBD mutation: RXRa K156A/R161A, NR concentration 90 nM) | -1
GATAGAGGGTCAGCTAGAGGCCAGAGTATGGAAA | RXRa DBDmut IVT, anti-RXR (DBD mutation: RXRa K156A/R161A, NR concentration 90 nM) | -1
GCTGGGAGGACAAGGTCAGAGCTTTGTCCGTAGA | RXRa DBDmut IVT, anti-RXR (DBD mutation: RXRa K156A/R161A, NR concentration 90 nM) | -1
TAGCCTAGGTCATTCCGGGGCCAGTATAGAAAGC | RXRa DBDmut IVT, anti-RXR (DBD mutation: RXRa K156A/R161A, NR concentration 90 nM) | 1
CCAGACAGGTGAGAAGGTAAGTCAGCCTCGATTA | RXRa DBDmut IVT, anti-RXR (DBD mutation: RXRa K156A/R161A, NR concentration 90 nM) | -1
ATCGAAAGATCGACGAGGTGAGTATACACCGTTT | RXRa DBDmut IVT, anti-RXR (DBD mutation: RXRa K156A/R161A, NR concentration 90 nM) | -1
CCGTACGGGTCACGAGGTTATAGCACGACGAGCG | RXRa DBDmut IVT, anti-RXR (DBD mutation: RXRa K156A/R161A, NR concentration 90 nM) | 1
TAGCCTAGGTCATCCGGGCCAGTATAGTGTCGGC | RXRa DBDmut IVT, anti-RXR (DBD mutation: RXRa K156A/R161A, NR concentration 90 nM) | 1
AATACAGGGTCATCGTAGGCCAGTGTACGCACAG | RXRa DBDmut IVT, anti-RXR (DBD mutation: RXRa K156A/R161A, NR concentration 90 nM) | 1
